Source listed as paper PMC5641094.

- SYSTEM NAME: p160_20-160 (Homo sapiens, UniProt Q9BQG0)
- Construct: were added to a plate coated with p160_20-160 (0.1μM); His6; made in house
- Sequence (Q9BQG0 20-160): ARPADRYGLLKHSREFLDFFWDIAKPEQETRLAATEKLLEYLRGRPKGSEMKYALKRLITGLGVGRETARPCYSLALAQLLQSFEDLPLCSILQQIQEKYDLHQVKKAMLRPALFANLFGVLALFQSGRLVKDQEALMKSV
- EXPERIMENT SUMMARY: ELISA-like direct binding of biotinylated Prep1 peptides to coated p160_20-160
- MEASUREMENT PARAMETERS: N-terminally biotinylated peptide variants; plate coated with p160_20-160 (0.1μM); streptavidin-HRP; one-site binding fit; triplicate, performed at least twice
pKd: −log10 of the molar value.
Measured pKd values are reported for all entries that follow.
REPORTED PROPERTY: pKd

| SUBSTANCE | SYSTEM NAME | QUANTITATIVE READOUT |
| --- | --- | --- |
| Ac-RHPLFPLLALLFEK-NH2 [Prep1(59-72)] | p160_20-160 (Homo sapiens, UniProt Q9BQG0) | 5.90 |
| Ac-KQAIYRHPLFPLLALLFEK-NH2 [Prep1(54-72)] | p160_20-160 (Homo sapiens, UniProt Q9BQG0) | 6.74 |
